The origin of these recorded values is PubChem BioAssay (NCI).

- assay.overview: NCI Yeast Anticancer Drug Screen. Data for the rad50 strain (AID 155);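 note: 0% = growth of vehicle-only cultures of the same strain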
- stated.conditions: S. cerevisiae rad50 strain growth inhibition; at 1.2 µM; hits give high values
The panel holds about 79,000 compounds, 15% with a hit somewhere; the sample as a whole holds those more often. Calls of active or inactive are those of the source. Cut-off read from the data, not from the text of the source: active = growth inhibition above about 70%; inactive = the rest.
Collected growth inhibition values appear next to each entry.
property.name: growth inhibition

>>> readout_value("Cc1cc(O)cc(O)c1N=Nc1ccc([N+](=O)[O-])cc1")
"-6% (inactive)"
>>> readout_value("C(=C\\c1ccccc1)/COc1ccccc1C(N1CCOCC1)n1nc2ccccc2n1 (stereo unspecified)")
"-6% (inactive)"
>>> readout_value("CCCc1cc(C(=O)OCC)cc(CCC)c1O")
"-8% (inactive)"
>>> readout_value("COC(=O)c1ccc(NCC2=CC(=O)C=CC2=O)cc1O")
"12% (inactive)"
>>> readout_value("O=C1NC(=O)C2C3C=CC(C3)C12 (stereo unspecified)")
"-6% (inactive)"
>>> readout_value("O=[N+]([O-])c1cccc2nc3ccccc3c(NCCCN3CCOCC3)c12")
"89% (active)"

###

- assay.overview: NCI Yeast Anticancer Drug Screen. Data for the mec2-1 strain (AID 157)
- stated.conditions: S. cerevisiae mec2-1 strain, at 3.7 µM, hits give high values
The panel holds about 79,000 compounds, 15% with a hit somewhere; the sample as a whole holds those more often.
property.name: growth inhibition (%)

>>> readout_value("CN(C)Cc1cc(N=Nc2ccc(Cl)cc2)cc(CN(C)C)c1O")
17
>>> readout_value("Cc1ccc(NC(=O)/C(Cl)=C(\\Cl)C(=O)O)cc1C")
10
>>> readout_value("CC1=C(C)Cc2c(O)ccc(O)c2C1")
-3
>>> readout_value("CC1=C(SCCO)C(=O)c2ccccc2C1=O")
-1
>>> readout_value("CC(C)C1=CCC2C(=C1)CCC1C(C)(C(=O)O)CCCC21C (stereo unspecified) (tested in a mixture with another compound)")
13
>>> readout_value("O=[N+]([O-])c1ccc2nc3ccccc3cc2c1")
1
>>> readout_value("Nc1ccn(C2OC(CO)C3[O][Sn]([c]4ccccc4)([c]4ccccc4)[O]C32)c(=O)n1 (stereo unspecified)")
3
>>> readout_value("Cc1nc(-[n+]2nc(-c3ccncc3)nn2-c2ccccc2)sc1C")
-2
>>> readout_value("Oc1c(Br)cc(Br)cc1C1CCCCC1")
-3
>>> readout_value("Cc1ccc(-n2cc(-c3ccc(Cl)cc3)c(C#N)c2N)cc1")
-8
>>> readout_value("O=[N+]([O-])c1cccc2nccc(NCCCO)c12")
-12

###

In this section we review reported growth inhibition values for a set of molecules.
- assay.overview: NCI Yeast Anticancer Drug Screen. Data for the bub3 strain (AID 167)
- stated.conditions: S. cerevisiae bub3 mutant strain, at 3.7 µM, hits give high values
The panel holds about 79,000 compounds, 15% with a hit somewhere; the sample as a whole holds those more often.
property.name: growth inhibition (%)

>>> readout_value("[O-][n+]1c2ccc(O)cc2nc2ccc(Br)cc21")
16
>>> readout_value("CC(=O)N/N=C/C(C)(C)C(C)(C)/C=N/NC(C)=O")
-4
>>> readout_value("O=C(N=Nc1cc(Cl)ccc1Cl)NNc1cc(Cl)ccc1Cl")
2
>>> readout_value("COc1cc(CC2CC(c3ccc4c(c3)OCO4)OC2=O)cc(OC)c1OC (stereo not given)")
28
>>> readout_value("COC1C=COC2(C)Oc3c(C)c(O)c4c(c3C2=O)/C(=N/C2CCC(O)OC2C)C=C(NC(=O)/C(C)=C\\C(=O)C2CC2C(O)C(C)C(O)C(C)C(OC(C)=O)C1C)C4=O (stereo not given)")
-6
